# System: LNCaP tumor xenograft-bearing CB17-SCID mice
# Assay type: in vivo, mouse
# Experimental Context: 24 h p.i.
Measured Attribute: Biodistribution Liver (% ID/g)

[
  {
    "Compound": "C#CC[C@H](NC(=O)N[C@@H](CCC(=O)N[C@H](CCCNC(=O)CCC(=O)NCCCC[C@@H](NC(=O)[C@@H](CNC(=O)c1ccc([Si](F)(C(C)(C)C)C(C)(C)C)cc1)NC(=O)CN1CCN(CC(=O)[O-])CCN(CC(=O)[O-])CCN(CC(=O)[O-])CC1)C(=O)O)C(=O)O)C(=O)O)C(=O)O.[Lu+3] [^natLu/[^177Lu]Lu-10]",
    "Experimental Target": "LNCaP tumor xenograft-bearing CB17-SCID mice",
    "Measured Attribute": "Biodistribution Liver",
    "Reported": 0.09
  },
  {
    "Compound": "CCCCCCC(NC(=O)C(CCC(=O)O)NC(=O)NC(CCC(=O)NC(CCCNC(=O)CCC(=O)NCCCCC(NC(=O)C(CNC(=O)c1ccc([Si](F)(C(C)(C)C)C(C)(C)C)cc1)NC(=O)CN1CCN(CC(=O)[O-])CCN(CC(=O)[O-])CCN(CC(=O)[O-])CC1)C(=O)O)C(=O)O)C(=O)O)C(=O)O.[Lu+3] (centres unmarked) [^natLu/[^177Lu]Lu-7]",
    "Experimental Target": "LNCaP tumor xenograft-bearing CB17-SCID mice",
    "Measured Attribute": "Biodistribution Liver",
    "Reported": 0.17
  }
]

* * *

# System: LNCaP tumor xenograft-bearing CB17-SCID mice
# Format: in vivo, mouse
# Experimental Context: 24 h p.i.
# Experimental: All animal experiments were conducted in accordance with general animal welfare regulations in Germany (German animal protection act, as amended on 18.05.2018, Art. 141 G v. 29.3.2017 I 626, approval no. 55.2–1-54-2532-71-13) and the institutional guidelines for the care and use of animals. […]
Measured Attribute: Biodistribution Liver (% ID/g)

[
  {
    "Compound": "CSCC[C@H](NC(=O)CC[C@H](NC(=O)N[C@@H](CCC(=O)N[C@H](CCCNC(=O)CCC(=O)NCCCC[C@@H](NC(=O)[C@@H](CNC(=O)c1ccc([Si](F)(C(C)(C)C)C(C)(C)C)cc1)NC(=O)CN1CCN(CC(=O)[O-])CCN(CC(=O)[O-])CCN(CC(=O)[O-])CC1)C(=O)O)C(=O)O)C(=O)O)C(=O)O)C(=O)O.[Lu+3] [^natLu/[^177Lu]Lu-5]",
    "Reported": 0.05
  },
  {
    "Compound": "CC(C)(C)[Si](F)(c1ccc(C(=O)NC[C@@H](NC(=O)CN2CCN(CC(=O)[O-])CCN(CC(=O)[O-])CCN(CC(=O)[O-])CC2)C(=O)N[C@H](CCCCNC(=O)CCC(=O)NCCC[C@@H](NC(=O)CC[C@H](NC(=O)O[C@@H](CCC(=O)O)C(=O)O)C(=O)O)C(=O)O)C(=O)O)cc1)C(C)(C)C.[Lu+3] [^natLu/[^177Lu]Lu-3]",
    "Reported": 0.13
  },
  {
    "Compound": "CC(C)(C)[Si](F)(c1ccc(C(=O)NC[C@@H](NC(=O)CN2CCN(CC(=O)[O-])CCN(CC(=O)[O-])CCN(CC(=O)[O-])CC2)C(=O)N[C@H](CCCCNC(=O)CCC(=O)NCCC[C@@H](NC(=O)CC[C@H](NC(=O)N[C@@H](CCc2nnn[nH]2)C(=O)O)C(=O)O)C(=O)O)C(=O)O)cc1)C(C)(C)C.[Lu+3] [^natLu/[^177Lu]Lu-11]",
    "Reported": 0.18
  }
]

# credit: paper PMC7910394
